- system.name: Cytochrome P450 1A2 (Homo sapiens, UniProt P05177)
- Sequence (P05177 whole entry): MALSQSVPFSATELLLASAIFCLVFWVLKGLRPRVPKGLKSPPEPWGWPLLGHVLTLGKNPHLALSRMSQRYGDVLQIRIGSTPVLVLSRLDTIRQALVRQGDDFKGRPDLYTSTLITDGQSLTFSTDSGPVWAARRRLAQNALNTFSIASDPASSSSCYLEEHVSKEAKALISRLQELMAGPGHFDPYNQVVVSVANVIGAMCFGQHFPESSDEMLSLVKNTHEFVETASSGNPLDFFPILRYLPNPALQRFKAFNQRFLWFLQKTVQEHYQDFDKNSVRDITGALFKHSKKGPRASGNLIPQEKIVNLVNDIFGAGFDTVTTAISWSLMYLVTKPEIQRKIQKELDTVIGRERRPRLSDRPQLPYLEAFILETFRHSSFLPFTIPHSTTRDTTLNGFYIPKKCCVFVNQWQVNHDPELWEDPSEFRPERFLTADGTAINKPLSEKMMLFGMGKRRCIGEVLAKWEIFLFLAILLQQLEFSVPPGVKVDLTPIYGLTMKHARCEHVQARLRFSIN
pIC50: −log10 of the molar value.

| structure.notation | pIC50 |
| --- | --- |
| Cl.Cl.O=C(CN1CCOCC1)Nc1ccc(OC2CCN(C3CCC3)CC2)cc1 | < 4.35 |
